Experiment: NCI Yeast Anticancer Drug Screen. Data for the mlh1 rad18 strain (AID 175)
Details: S. cerevisiae mlh1 rad18 strain growth inhibition; at 50.0 µM; stronger effect = higher value
Compounds without any hit were thinned out: in the full panel of roughly 79,000, 15% have a hit.
Lab note: compare growth inhibition against 10%. Equal or greater, write 1 (yes). Smaller, write 0 (no).

Exam item: decide whether the reported growth inhibition for Cc1ccc(C)c(NC(=O)Oc2ccc(Cl)cc2Cc2ccccc2)c1 is at least 10%.
0 (no)

Exam item: decide whether the reported growth inhibition for ClCC1CCN(Cc2ccccc2)CC1 is at least 10%.
0 (no)

Exam item: decide whether the reported growth inhibition for CN(C)CCNC(=O)c1cccc2c(Nc3ccc(S(N)(=O)=O)cc3)c3ccccc3nc12 is at least 10%.
1 (yes)

Exam item: decide whether the reported growth inhibition for Cc1c(/C=C\C(=O)c2ccccc2)c2ccccc2n1C is at least 10%.
0 (no)

Exam item: decide whether the reported growth inhibition for CCN(CC)CCN1C(=O)N(CCN(CC)CC)C(=O)C(CC)(CC)C1=O is at least 10%.
1 (yes)

Exam item: decide whether the reported growth inhibition for N#CC1=C(N)N(c2ccccc2)C(c2ccco2)C1(C#N)C#N (stereo unspecified) is at least 10%.
0 (no)

Exam item: decide whether the reported growth inhibition for CC(=O)NC1CCCCC1C1CCC([N+](=O)[O-])CC1 (stereo unspecified) is at least 10%.
0 (no)

Exam item: decide whether the reported growth inhibition for CC(=O)Oc1ccc(OC(C)=O)c2c(OC(C)=O)ccc(OC(C)=O)c12 is at least 10%.
0 (no)

Exam item: decide whether the reported growth inhibition for CCC(C)(O)CCC(C)(O)CC (stereo unspecified) is at least 10%.
0 (no)

Exam item: decide whether the reported growth inhibition for COC(=O)CCC(=O)O is at least 10%.
1 (yes)

Exam item: decide whether the reported growth inhibition for O=C1CCCNc2c(Br)cc(Br)cc21 is at least 10%.
1 (yes)

Exam item: decide whether the reported growth inhibition for C[N+](C)(C)C/C=C/C[N+](C)(C)C is at least 10%.
0 (no)

Exam item: decide whether the reported growth inhibition for COc1ccc2nc3cccc([N+](=O)[O-])c3c(NCCC(=O)O)c2c1 is at least 10%.
1 (yes)

Exam item: decide whether the reported growth inhibition for Cn1c(COc2ccc(/C=N\N3CCN(/N=C\c4ccc(OCc5c[n+]6ccccc6n5C)cc4)CC3)cc2)c[n+]2ccccc12 is at least 10%.
1 (yes)

Exam item: decide whether the reported growth inhibition for COC(=O)c1nc(N)nc(C(=O)OC)c1C(=O)c1cccc2ccccc12 is at least 10%.
0 (no)

Exam item: decide whether the reported growth inhibition for O=C1c2cc3c(cc2CC1Cc1ccc2c(c1)CCC2)CCC3 (stereo unspecified) is at least 10%.
0 (no)

Exam item: decide whether the reported growth inhibition for COc1cc(NCCCCCNC(C)C)c2nccc(C)c2c1 is at least 10%.
1 (yes)

Exam item: decide whether the reported growth inhibition for COC(=O)C(Cc1cn(C(C)=O)c2ccccc12)P(=O)(OC)OC (stereo unspecified) is at least 10%.
0 (no)

Exam item: decide whether the reported growth inhibition for CC(C)(C)OC(=O)NC(Cc1ccccc1)OCc1ccccc1 (stereo unspecified) is at least 10%.
0 (no)

Exam item: decide whether the reported growth inhibition for O=C1OC(c2ccccc2)N(C(=O)c2ccccc2)C1Cc1ccc(OCc2ccccc2)cc1 (stereo unspecified) is at least 10%.
0 (no)

Entry source: PubChem BioAssay (NCI)
